- Read-out: Early growth response protein 1 (EGR1) transcription factor, EGR1 (gene 1958)
- Test description: LTEA_HepaRG_EGR1: Life Technologies and Expression Analysis (LTEA) Assay for Early growth response protein 1 (EGR1) transcription factor using HepaRG (AID 2283490)
- Study conditions: mRNA level, 48 h; actives raise or lower the signal
- Description: LTEA_HepaRG is a cell based, multiplexed-readout assay that uses HepaRG, a human liver cell line, with measurements taken at 48 hours after chemical dosing on a 96-well plate.LTEA_HepaRG_EGR1 is one of 102 assay component(s) measured in the LTEA HepaRG cell culture assay. It is a marker of Cell proliferation, survival, death.Data from the assay component LTEA_HepaRG_EGR1 was analyzed into 1 endpoint. […]
Activity calls are given as the source filed them. How the source made its calls: active means hit-call score of the fitted dose curve at least 0.9, where 1 is the maximum; inactive means score below 0.9.
Answer with one of the outcomes given here: True for active, False for inactive

Take a look at these entries with their results.
{"columns": ["Molecule", "Class label"],
 "data": [
  ["Cc1cc(SC2=C(O)C[C@@](CCc3ccc(N)cc3)(C(C)C)OC2=O)c(C(C)(C)C)cc1CO", "False"],
  ["CC(=O)O", "False"],
  ["CC(C)NCC(O)c1ccc(O)c(O)c1 (stereo unspecified)", "False"],
  ["CC(=O)OCC(COC(C)=O)OC(C)=O", "False"],
  ["CC(N)=O", "False"],
  ["CC(C)c1cccc(C(C)C)c1NC(=O)NS(=O)(=O)c1cc(C(C)(C)O)co1", "False"],
  ["C=CCCCCCCCCCCCC", "False"],
  ["CCOCCOCCO", "False"],
  ["Cc1c(C)c2c(c(C)c1O)CCC(C)(COc1ccc(CC3SC(=O)NC3=O)cc1)O2 (stereo unspecified)", "True"],
  ["CC(=O)OC1CC(C)OC(C)O1 (stereo unspecified)", "False"]
]}

Data request: For this molecule, state the assay outcome: `O=C(O)c1cccnc1`
Data returned: False

Data request: Hey, what did the test say about `NC1CCCCC1` ?
Data returned: False

Data request: Check the results log: what was the call for `Cc1occc(=O)c1O` ?
Data returned: False

Data request: Please let me know the test result on file for `O=C(N[C@@H](c1ccccc1)[C@@H]1CCCCN1)c1cccc(C(F)(F)F)c1Cl` .
Data returned: True

Data request: Called result for `O=C1NC(=O)C(c2ccccc2)(c2ccccc2)N1`
Data returned: False

Data request: Test call, this molecule: `Nc1nc(=S)c2[nH]cnc2[nH]1`
Data returned: True

###

- Read-out: Bcl-2 (BID) gene, BID (gene 637)
- Test description: LTEA_HepaRG_BID: Life Technologies and Expression Analysis (LTEA) Assay for Bcl-2 (BID) gene using HepaRG (AID 2283476)
- Study conditions: mRNA level, 48 h; actives raise or lower the signal
Calls of active or inactive are those of the source. The calls were made as follows: active = hit-call score of the fitted dose curve at least 0.9, where 1 is the maximum; inactive = score below 0.9.

{"columns": ["Compound", "outcome"],
 "data": [
  ["CCCCCCCCCC[N+](C)(C)[O-]", "inactive"],
  ["O=NO", "inactive"],
  ["C#CC(O)C(CC)CCCC (stereo not drawn)", "inactive"]
]}

###

- Test description: APR_HepG2_MitoticArrest_24hr: Apredica 24-hour HepG2 Assay for Mitotic Arrest (AID 2282910)
- Study conditions: high-content imaging, actives raise or lower the signal
The source made the active and inactive calls. The calls were made as follows: active = hit-call score of the fitted dose curve at least 0.9, where 1 is the maximum; inactive = score below 0.9.

{"columns": ["Chemical structure", "AC50"],
 "data": [
  ["O=C1O[C@H]([C@H](O)CO)C(O)=C1O", "inactive"],
  ["CN(C)CCCN1c2ccccc2Sc2ccc(Cl)cc21", "19.7 µM (active)"],
  ["CCOCCOCCO", "inactive"],
  ["N[C@@H](Cc1c[nH]c2ccccc12)C(=O)O", "inactive"]
]}

###

- Read-out: BCL2L11 (gene 10018)
- Test description: LTEA_HepaRG_BCL2L11: Life Technologies and Expression Analysis (LTEA) Assay for Bcl-2 (BCL2L11) gene using HepaRG (AID 2283473)
- Study conditions: mRNA level, 48 h; actives raise or lower the signal
Active and inactive are the calls of the source. Rule for the calls: active = hit-call score of the fitted dose curve at least 0.9, where 1 is the maximum; inactive = score below 0.9.
Tick one outcome: 1 (active), 0 (inactive)

# example entries with known answers
{"columns": ["Molecule", "Class label"],
 "data": [
  ["CC(C)(C)c1ccccc1", 0],
  ["CCCCCCCCCCCCCCOS(=O)(=O)O", 0],
  ["COC(=O)[C@H]1[C@H]2C[C@@H]3c4[nH]c5cc(OC)ccc5c4CCN3C[C@H]2C[C@@H](OC(=O)c2cc(OC)c(OC)c(OC)c2)[C@@H]1OC", 0]
]}

Attention now turns to another entry.
Data request: Record lookup: outcome of this test for `O=Cc1ccccc1C=O` ?
Data returned: 0

###

- Test description: CEETOX_H295R_OHPREG: CeeTox H295R High-throughput Steroidogenesis Assay for OH-Pregnenolone (OHPREG) (AID 2283434)
- Study conditions: actives raise or lower the signal
The source made the active and inactive calls. How the source made its calls: active means hit-call score of the fitted dose curve at least 0.9, where 1 is the maximum; inactive means score below 0.9.
Thanks in advance; please answer with one of these: y for active, n for inactive

Please review the following examples before continuing.
{"columns": ["Chemical structure", "Class label"],
 "data": [
  ["CC(C)(O)c1ccc(CNC(=O)c2cccnc2Oc2ccc(F)cc2)cc1", "n"],
  ["COc1ccc(C(=O)Nc2nc3ccccc3c(NCc3ccccc3)c2C#N)cc1", "y"]
]}

Consider now this further molecule.
Data request: What was the test verdict on `Oc1ccccc1O` ?
Data returned: n

###

- Test description: CEETOX_H295R_CORTIC: CeeTox H295R High-throughput Steroidogenesis Assay for Corticosterone (CORTIC) (AID 2283437);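 further: corticosterone secreted into medium quantified by mass spectrometry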
- Study conditions: actives raise or lower the signal
Activity calls are given as the source filed them. How the source made its calls: active means hit-call score of the fitted dose curve at least 0.9, where 1 is the maximum; inactive means score below 0.9.
Respond only with the outcome that fits, drawn from 1 (yes) (active), 0 (no) (inactive)

{"columns": ["Chemical structure", "Class label"],
 "data": [
  ["O=C(Oc1ccccc1)c1cccc(C(=O)Oc2ccccc2)c1", "1 (yes)"]
]}

Data request: Fill in: this test's call for `CN(C)C(=O)NC1(c2ccccc2)CCN(CCC[C@]2(c3ccc(Cl)c(Cl)c3)CCCN(C(=O)c3ccccc3)C2)CC1` is ___
Data returned: 0 (no)

Data request: Would you mind telling me which call this test gave `Cc1cc(Cc2ccc(N)c(C)c2)ccc1N` ?
Data returned: 1 (yes)

Data request: Per the records of this test, what outcome belongs to `O=C(O)CN(CC(=O)O)CC(=O)O` ?
Data returned: 0 (no)

###

- Test description: CCTE_Shafer_MEA_acute_firing_rate_mean: CCTE's Neural Acute Assay for Mean Firing Rate, Shafer Lab (AID 2284009);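 further: analyzed for loss of signal so actives lower firing rate relative to DMSO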
Active and inactive are the calls of the source. The calls were made as follows: active = hit-call score of the fitted dose curve at least 0.9, where 1 is the maximum; inactive = score below 0.9.
Endpoint name: AC50

Study these solved cases before continuing.
{"columns": ["Compound", "Endpoint name", "Reported value"],
 "data": [
  ["Cc1ccc(-c2cc(C(F)(F)F)nn2-c2ccc(S(N)(=O)=O)cc2)cc1", "AC50", "6.27 µM (active)"],
  ["C/C=C/c1ccc(OC)cc1", "AC50", "inactive"],
  ["NC(=Nc1ccccc1)Nc1ccccc1", "AC50", "2.03 µM (active)"],
  ["Cc1cc(SC2=C(O)C[C@@](CCc3ccc(N)cc3)(C(C)C)OC2=O)c(C(C)(C)C)cc1CO", "AC50", "inactive"],
  ["O=C(O)CN(CC(=O)O)CC(=O)O", "AC50", "inactive"],
  ["Cc1c(C)c2c(c(C)c1O)CCC(C)(COc1ccc(CC3SC(=O)NC3=O)cc1)O2 (configuration not stated)", "AC50", "3.97 µM (active)"],
  ["c1ccc2occc2c1", "AC50", "inactive"],
  ["CC1=C(C)S(=O)(=O)CCS1(=O)=O", "AC50", "inactive"],
  ["CC(C)NCC(O)c1ccc(O)c(O)c1 (configuration not stated)", "AC50", "inactive"],
  ["OCC(CO)n1cnc(-c2ccc(F)cc2)c1-c1ccnc(Oc2ccccc2)n1", "AC50", "inactive"]
]}

Data request: Item `O=C(N[C@@H](c1ccccc1)[C@@H]1CCCCN1)c1cccc(C(F)(F)F)c1Cl` : provide AC50
Data returned: 4.39 µM (active)

Data request: State its AC50 for this compound: `CN(C)C(=O)NC1(c2ccccc2)CCN(CC[C@@]2(c3ccc(F)c(F)c3)CN(C(=O)c3ccccc3)CCO2)CC1`
Data returned: 4.14 µM (active)

###

- Read-out: Phosphatase and tensin (PTEN), PTEN (gene 5728)
- Test description: LTEA_HepaRG_PTEN: Life Technologies and Expression Analysis (LTEA) Assay for Phosphatase and tensin (PTEN) using HepaRG (AID 2283523)
- Study conditions: mRNA level, 48 h; actives raise or lower the signal
Activity calls are given as the source filed them. The calls were made as follows: active = hit-call score of the fitted dose curve at least 0.9, where 1 is the maximum; inactive = score below 0.9.
Give your call using only these classes: yes (1) for active, no (0) for inactive

These solved cases illustrate the format of a correct answer.
{"columns": ["Compound", "Class label"],
 "data": [
  ["CCOCCOCCO", "no (0)"],
  ["O=C1CCCCC1", "no (0)"],
  ["NCCOCCOCCN", "no (0)"],
  ["CC(=O)S[C@H](C(=O)N[C@H]1Cc2ccccc2[C@H]2CCC[C@@H](C(=O)O)N2C1=O)C(C)C", "no (0)"],
  ["CSc1ccc(Oc2ccc(S(N)(=O)=O)cc2CN(C)C)cc1C", "no (0)"],
  ["CCN(CC)CCOc1ccc(C(=C(Cl)c2ccccc2)c2ccccc2)cc1", "yes (1)"]
]}

Data request: Assay result, entry `CC1(C)C(=O)NC(=O)N1CO` — outcome?
Data returned: no (0)

Data request: # outcome recorded in this test, key = `Oc1ccc(O)cc1`
Data returned: no (0)

Data request: Kindly provide the recorded test outcome for the following compound: `O=Cc1ccccc1C=O`
Data returned: no (0)

Data request: Could you check what this test reported for CCCCCCC(CCCCCCCCCCC(=O)OCC(COC(C)=O)OC(C)=O)OC(C)=O (stereo not given) ?
Data returned: no (0)

Data request: Which outcome was assigned to `CC(C)c1cccc(C(C)C)c1` in this test?
Data returned: no (0)

Data request: // return assay outcome for `CC(=O)OCC(COC(C)=O)OC(C)=O`
Data returned: no (0)

Data request: Field: outcome | Entry: `c1ccc2occc2c1`
Data returned: no (0)

Data request: Recorded test call requested for `OCC(O)CO`
Data returned: no (0)

Data request: // outcome(item) with item = `CN(C)C(=O)NC1(c2ccccc2)CCN(CC[C@@]2(c3ccc(F)c(F)c3)CN(C(=O)c3ccccc3)CCO2)CC1`
Data returned: no (0)

Data request: Dear all, I need the recorded test outcome for `Cc1occc(=O)c1O` , thank you.
Data returned: no (0)

Data request: Answer briefly: the call reported for `Nc1nc(Cl)nc2c1ncn2[C@H]1C[C@H](O)[C@@H](CO)O1` in this assay.
Data returned: yes (1)

Data request: I would be grateful if you could indicate the recorded call for `Oc1ccccc1O` .
Data returned: no (0)

Data request: For this compound, state the assay outcome: `C/C=C/C=C/C(=O)O`
Data returned: no (0)

Data request: What did the test return for `O=C(O)c1cccnc1` ?
Data returned: no (0)

Data request: What is the recorded call for this compound in the test? `O=C(Oc1ccccc1)c1cccc(C(=O)Oc2ccccc2)c1`
Data returned: no (0)

Data request: Tell me the assay call for `O=NO` please.
Data returned: no (0)

Data request: Record lookup: outcome of this test for `C=CCCCCCCCCCCCC` ?
Data returned: no (0)

Data request: Fill in: this test's call for `Nc1nc(=S)c2[nH]cnc2[nH]1` is ___
Data returned: no (0)

Data request: # lookup: test call for `S=c1[nH]c2ccccc2s1`
Data returned: no (0)
